Data provenance: paper PMC9804084

experiment: In vivo microdialysis pharmacokinetics of LVFX without transporter inhibitors; set-up: species or system rat; conditions: rat, CSF, iv, 50 mg/kg, pH 9, CSF; Group 3: physiological saline alkalinized with NaOH (pH 9.0–9.2) + LVFX 50 mg/kg; mean ± SD, n=3

{"compound": "C[C@H]1COc2c(N3CCN(C)CC3)c(F)cc3c(=O)c(C(=O)O)cn1c23", "readoutUnit": "h", "MRT": 1.36}

----------
test system: P-glycoprotein (P-gp); test: In vivo microdialysis pharmacokinetics of LVFX with P-gp inhibitor Tariquidar; design: species or system rat; conditions: rat, intravenous, with Tariquidar 8 mg/kg i.p., 30 min before LVFX; blood; TAR group, Tariquidar 8 mg/kg i.p. + LVFX 50 mg/kg; mean ± SD, N=5

{"compound": "C[C@H]1COc2c(N3CCN(C)CC3)c(F)cc3c(=O)c(C(=O)O)cn1c23", "readoutUnit": "ng/mL", "Cmax": 10400}

----------
system: Organic anion transporters (OATs); assay: In vivo microdialysis pharmacokinetics of LVFX with OATs inhibitor probenecid; design: species or system rat; conditions: rat, brain ECF (hippocampal microdialysate, unbound), intravenous, with Probenecid 50 mg/kg i.p., 30 min before LVFX; brain ECF; PRO group, Probenecid 50 mg/kg i.p. + LVFX 50 mg/kg; N=5

{"molecule": "C[C@H]1COc2c(N3CCN(C)CC3)c(F)cc3c(=O)c(C(=O)O)cn1c23 [LVFX, Levofloxacin]", "Tmax": "15 min"}

----------
Assay: In vivo microdialysis pharmacokinetics of LVFX without transporter inhibitors
Set-up: species or system rat
Conditions: rat, blood (microdialysate, unbound), iv, 50 mg/kg, blood; Group 1: vehicle solution of Tariquidar/Ko143 + LVFX 50 mg/kg; mean ± SD, n=3; read-out: AUC0–180 (converted)
Description: On the day of surgery, rats were anesthetized using inhaled isoflurane via a facemask. The rats were placed in a stereotaxic frame (Gene&I), and the body temperature was maintained with a homoeothermic blanket set at 37°C. A midline incision was made to expose the skull. […]

{"compound": "C[C@H]1COc2c(N3CCN(C)CC3)c(F)cc3c(=O)c(C(=O)O)cn1c23 [LVFX, Levofloxacin]", "AUC(0-t)": "10300 ng·h/mL"}

----------
test: In vivo microdialysis pharmacokinetics of LVFX without transporter inhibitors; parameters: species or system rat; conditions: rat, CSF, iv, 50 mg/kg, CSF; Group 2: 1.25% NaHCO3 solution + LVFX 50 mg/kg; mean ± SD, n=3

{"compound": "C[C@H]1COc2c(N3CCN(C)CC3)c(F)cc3c(=O)c(C(=O)O)cn1c23", "MRT, h": 1.23}

----------
assay: In vivo microdialysis pharmacokinetics of LVFX without transporter inhibitors; design: species or system rat; details: rat, iv; brain ECF; Group 3: physiological saline alkalinized with NaOH (pH 9.0–9.2) + LVFX 50 mg/kg; n=3

{"compound": "C[C@H]1COc2c(N3CCN(C)CC3)c(F)cc3c(=O)c(C(=O)O)cn1c23 [LVFX, Levofloxacin]", "Tmax (min)": 15}

----------
test: In vivo microdialysis pharmacokinetics of LVFX without transporter inhibitors; set-up: species or system rat; details: rat, brain ECF, iv, 50 mg/kg, brain ECF; Group 2: 1.25% NaHCO3 solution + LVFX 50 mg/kg; mean ± SD, n=3

{"compound": "C[C@H]1COc2c(N3CCN(C)CC3)c(F)cc3c(=O)c(C(=O)O)cn1c23 [LVFX, Levofloxacin]", "Cmax [µg/mL]": 2.72}
